Reported Time values are given for each entry in this list.
# System: Thoracic
# measurement-protocol: Vasorelaxation activity against phenylephrine-stimulated contraction in rat thoracic tissue assessed as time taken for relaxation at 40 uM
# Format: functional, Thorax
Could you give me the number in min? Just the number is fine.

# compound, unit-descriptor, Time
records = [
    ("CC(C)(F)[C@@H]1COc2ccc(F)cc2C1C#Cc1ccccc1 (single isomer, unassigned)", "min", 33),
    ("CC(C)(F)[C@@H]1COc2c(F)cc(F)cc2C1C#Cc1ccccc1 (single isomer, unassigned)", "min", 24),
]

Ask | Using the record for CC(C)(F)[C@@H]1COc2ccc([N+](=O)[O-])cc2C1C#Cc1ccccc1 (single isomer, unassigned) , report its Time.
Reply | 30

Ask | I'd like to know its Time. The compound in question is CC(C)(F)[C@@H]1COc2c(F)cccc2C1C#Cc1ccccc1 (single isomer, unassigned)
Reply | 21

----------
# Tested on: Thoracic
# measurement-protocol: Vasorelaxation activity against phenylephrine-stimulated contraction in rat thoracic tissue at 40 uM
# Assay type: functional, Thorax
# Design: scale not given: the % may be the effect or the level left
attribute-measured: Activity (%)
The figure you give is taken to be in %; do not add the unit.

Guide cases for Activity, answers given:
# molecule, assay-system, attribute-measured, readout-number
measured = [
    ("CC(C)(F)[C@@H]1COc2ccc(F)cc2C1C#Cc1ccccc1 (single isomer, unassigned)", "Thoracic", "Activity", 83),
    ("CC(C)(F)[C@@H]1COc2c(F)cc(F)cc2C1C#Cc1ccccc1 (single isomer, unassigned)", "Thoracic", "Activity", 65),
    ("CC(C)(F)[C@@H]1COc2ccc([N+](=O)[O-])cc2C1C#Cc1ccccc1 (single isomer, unassigned)", "Thoracic", "Activity", 88),
]

Then there is this molecule:
Ask | // Activity lookup, key: CC(C)(F)[C@@H]1COc2c(F)cccc2C1C#Cc1ccccc1 (single isomer, unassigned)
Reply | 92
